Reference source: patent US20200247894A1

Molecular target: T1, Macaca fascicularis IL2Rγ extracellular domain expressed with a C-terminal myc-myc-hexahistidine tag (Macaca fascicularis)
T1 construct: also called mfIL-2Rg-MMH; mfIL-2RG-MMH
T1 chain: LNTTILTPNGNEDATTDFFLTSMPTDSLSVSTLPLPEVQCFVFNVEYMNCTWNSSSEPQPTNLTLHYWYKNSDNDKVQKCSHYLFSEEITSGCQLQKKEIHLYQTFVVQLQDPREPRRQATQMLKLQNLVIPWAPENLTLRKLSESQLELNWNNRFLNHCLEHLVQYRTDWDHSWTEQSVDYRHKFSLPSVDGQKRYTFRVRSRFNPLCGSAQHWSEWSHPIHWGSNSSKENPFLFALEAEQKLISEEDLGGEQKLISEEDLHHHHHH
Experiment: SPR Biacore 4000, mAb captured by anti-hFc, HBS-ET, 25C
property.label: kon

binder | kon
H4H13541P (antibody, human IgG4 S228P, kappa, V domains shown, anti-IL2Rγ monoclonal antibody expressed with human IgG4 Fc) VH: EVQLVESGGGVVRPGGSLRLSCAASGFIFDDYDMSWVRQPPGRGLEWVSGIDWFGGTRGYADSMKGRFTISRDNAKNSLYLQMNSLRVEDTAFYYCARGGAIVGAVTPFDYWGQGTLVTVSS VL: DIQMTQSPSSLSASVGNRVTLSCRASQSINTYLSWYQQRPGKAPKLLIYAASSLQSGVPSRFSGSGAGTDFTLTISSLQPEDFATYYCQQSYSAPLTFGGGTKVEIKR | 170000 M⁻¹ s⁻¹
H4H12858P (antibody, human IgG4 S228P, kappa, V domains shown, anti-IL2Rγ monoclonal antibody expressed with human IgG4 Fc; also called REGN9433) VH: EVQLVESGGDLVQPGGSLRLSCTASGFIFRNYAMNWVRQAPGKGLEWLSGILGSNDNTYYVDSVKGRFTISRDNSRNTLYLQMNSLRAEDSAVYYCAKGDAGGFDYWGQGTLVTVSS VL: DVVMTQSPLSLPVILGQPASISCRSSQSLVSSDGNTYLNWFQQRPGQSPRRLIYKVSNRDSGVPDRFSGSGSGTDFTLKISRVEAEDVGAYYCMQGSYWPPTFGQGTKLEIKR | 114000 M⁻¹ s⁻¹

[Q] Return the recorded kon value; entry: H4H12871P (antibody, human IgG4 S228P, kappa, V domains shown, anti-IL2Rγ monoclonal antibody expressed with human IgG4 Fc; also called REGN9434) VH: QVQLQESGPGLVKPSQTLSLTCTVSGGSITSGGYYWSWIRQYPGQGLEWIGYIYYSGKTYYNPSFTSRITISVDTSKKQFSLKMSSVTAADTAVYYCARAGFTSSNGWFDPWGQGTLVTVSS VL: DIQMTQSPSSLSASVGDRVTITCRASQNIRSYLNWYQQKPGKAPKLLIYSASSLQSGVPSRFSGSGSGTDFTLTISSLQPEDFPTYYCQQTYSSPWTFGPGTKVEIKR
[A] 174000 M⁻¹ s⁻¹
